Substrate: CC1=C(CCC(=O)O)c2cc3nc(cc4[nH]c(cc5[nH]c(cc1n2)c(C)c5CCC(=O)O)c(CCC(=O)O)c4C)C(CCC(=O)O)=C3C
Run description: purified protein
Type: biochemical, Corynebacterium glutamicum
Condition info: ferrous ammonium sulfate 100 uM, Tris-HCl pH 8.0, 3.3% Tween 20, 5 mM glutathione, 30 °C
Property: Km

Illustrative cases are given below, each with its answer.
- CpfC (coproporphyrin ferrochelatase) (Corynebacterium glutamicum ATCC 13032) (protein, heterologously expressed in E. coli BL21, purified) MNERTSDAFDALLVLSFGGPEGHEEVRPFLENVTHGRGIPPERLDEVAVHYHHFGGISPINALNREIIANVEKELASRDHKLPVYFGNRNWKPFDNEAAEQMADDGVKNALVLATSAWGGYSGCRQYQEDIQGMIKHLESQGQSITFTKLRQFYDHPRFVSTMAQLVQDSYAKLPDELRDEARLVFTAHSIPLTADNAAGTPEDGSLYSTQVKEASALIAEAVGVSDFDVVWQSRSGSPHTPWLEPDIVDHAVELNEKGQKALVVCPVGFISDHMEVIWDLDSELMEEAEKRNMVVERVATVGPTDEFAALVVDLIEEAELKRVIERLGKLPARGSSVNGAPCGDGCCGTAKHKTARVNPNARSAAPAAN: 15.17 ± 1.84 × 10^-3 mM
- CpfC (coproporphyrin ferrochelatase) (Corynebacterium glutamicum ATCC 13032; E181G) (protein, heterologously expressed in E. coli BL21, purified) MNERTSDAFDALLVLSFGGPEGHEEVRPFLENVTHGRGIPPERLDEVAVHYHHFGGISPINALNREIIANVEKELASRDHKLPVYFGNRNWKPFDNEAAEQMADDGVKNALVLATSAWGGYSGCRQYQEDIQGMIKHLESQGQSITFTKLRQFYDHPRFVSTMAQLVQDSYAKLPDELRDGARLVFTAHSIPLTADNAAGTPEDGSLYSTQVKEASALIAEAVGVSDFDVVWQSRSGSPHTPWLEPDIVDHAVELNEKGQKALVVCPVGFISDHMEVIWDLDSELMEEAEKRNMVVERVATVGPTDEFAALVVDLIEEAELKRVIERLGKLPARGSSVNGAPCGDGCCGTAKHKTARVNPNARSAAPAAN: 10.04 ± 1.52 × 10^-3 mM
- CpfC (coproporphyrin ferrochelatase) (Corynebacterium glutamicum ATCC 13032; E31V) (protein, heterologously expressed in E. coli BL21, purified) MNERTSDAFDALLVLSFGGPEGHEEVRPFLVNVTHGRGIPPERLDEVAVHYHHFGGISPINALNREIIANVEKELASRDHKLPVYFGNRNWKPFDNEAAEQMADDGVKNALVLATSAWGGYSGCRQYQEDIQGMIKHLESQGQSITFTKLRQFYDHPRFVSTMAQLVQDSYAKLPDELRDEARLVFTAHSIPLTADNAAGTPEDGSLYSTQVKEASALIAEAVGVSDFDVVWQSRSGSPHTPWLEPDIVDHAVELNEKGQKALVVCPVGFISDHMEVIWDLDSELMEEAEKRNMVVERVATVGPTDEFAALVVDLIEEAELKRVIERLGKLPARGSSVNGAPCGDGCCGTAKHKTARVNPNARSAAPAAN: 8.26 ± 0.52 × 10^-3 mM

Please find the next protein below.
Km measured on CpfC (coproporphyrin ferrochelatase) (Corynebacterium glutamicum ATCC 13032; E100D/E31V) (protein, heterologously expressed in E. coli BL21, purified) MNERTSDAFDALLVLSFGGPEGHEEVRPFLVNVTHGRGIPPERLDEVAVHYHHFGGISPINALNREIIANVEKELASRDHKLPVYFGNRNWKPFDNEAADQMADDGVKNALVLATSAWGGYSGCRQYQEDIQGMIKHLESQGQSITFTKLRQFYDHPRFVSTMAQLVQDSYAKLPDELRDEARLVFTAHSIPLTADNAAGTPEDGSLYSTQVKEASALIAEAVGVSDFDVVWQSRSGSPHTPWLEPDIVDHAVELNEKGQKALVVCPVGFISDHMEVIWDLDSELMEEAEKRNMVVERVATVGPTDEFAALVVDLIEEAELKRVIERLGKLPARGSSVNGAPCGDGCCGTAKHKTARVNPNARSAAPAAN = 9.78 ± 0.82 × 10^-3 mM

Reference for the values: paper PMC10465345
